Origin of measurements: paper PMC9114115

System: P. aeruginosa PΔ3-Pore cells
Experiment: LC–MS quantification of intracellular accumulation, PΔ3-Pore;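 also: slope of accumulation versus external concentration fitted as a line through zero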
Settings: 1 min incubation, 10-80 µM
Counter-ions that a name gives are not always drawn.
measured_metric: Concentration slopes of accumulation, PΔ3-Pore_1 min

{"compound": "O=C(c1ccc(OCCN2CCCCC2)cc1)c1c(-c2ccc(O)cc2)sc2cc(O)ccc12 [OU-0000741, Raloxifene HCl]", "data_value": 83.30}
{"compound": "CN1CCN(c2cc3c(cc2F)c(=O)c(C(=O)O)cn3-c2ccc(F)cc2)CC1", "data_value": 6.73}
{"compound": "CS(=O)(=O)O.C[C@H]1COc2c(C3(N)CC3)c(F)cc3c(=O)c(C(=O)O)cn1c23 [OU-0000627, PAZUFLOXACIN MESYLATE]", "data_value": 5.45}
{"compound": "CC1CN=C(c2ccc(NC(=O)Nc3ccc(C4=NCCN4)cc3)cc2)N1.Cl (stereo not shown)", "data_value": 1.38}
